Assay System: CHO XBP1-luciferase reporter, UPR activation, luminescence
Method Description: activators of UPR IRE1-XBP1 adaptive arm, SAR follow-up, cell-based, luciferase luminescence, set 2 (AID 588580)
Activity calls are given as the source filed them.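 The calls were made as follows: active = mean EC50 of 20 µM or lower; inactive = the rest.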
Outcomes: T for active, F for inactive

Smiles Input | Category Label
O=C(Nc1ccccc1Br)c1cc(-c2ccncc2)nc2ccccc12 | F
O=C(Nc1cccc(Br)c1)c1cc(-c2ccncc2)nc2ccccc12 | F
O=C(Nc1cccc(F)c1F)c1cc(-c2ccncc2)nc2ccccc12 | F
Cc1ccc(NC(=O)c2cc(-c3ccncc3)nc3ccccc23)cc1 | T
O=C(Nc1ccc(Br)c(C(F)(F)F)c1)c1cc(-c2ccncc2)nc2ccccc12 | F
O=C(Nc1ccc(F)cc1)c1cc(-c2ccncc2)nc2ccccc12 | F
O=C(Nc1cc(F)ccc1F)c1cc(-c2ccncc2)nc2ccccc12 | F
Cc1cccc(NC(=O)c2cc(-c3ccncc3)nc3ccccc23)c1 | F
Cc1cc(NC(=O)c2cc(-c3ccncc3)nc3ccccc23)ccc1F | F

* * *

Assay System: CHO XBP1-luciferase reporter, UPR activation, luminescence
Method Description: activators of UPR IRE1-XBP1 adaptive arm, SAR follow-up, cell-based, luciferase luminescence, set 2 (AID 588580)
Calls of active or inactive are those of the source.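 The calls were made as follows: active = mean EC50 of 20 µM or lower; inactive = the rest.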
Outcomes: active, inactive

Smiles Input | Category Label
COc1cccc(NC(=O)c2cc(-c3ccncc3)nc3ccccc23)c1 | inactive
O=C(Nc1ccc(C(F)(F)F)cc1)c1cc(-c2ccncc2)nc2ccccc12 | active
O=C(Nc1cccc(C(F)(F)F)c1)c1cc(-c2ccncc2)nc2ccccc12 | inactive
Cc1cc(NC(=O)c2cc(-c3ccccc3)nc3ccccc23)ccc1Br | inactive
Cc1cc(NC(=O)c2cc(-c3ccncc3)nc3ccccc23)ccc1Cl | inactive
